- System: β-galactosidase in CMV-LacZ C2C12 myoblasts
- assay-explanation: CMV-LacZ secondary screen in C2C12 myoblasts (β-Gal stabilizing assay)
- Type: cell-based, mouse
- reported-conditions: 10 uM; CMV-LacZ C2C12 myoblasts
assay-readout: CMV-LACZ in Myoblasts (β-galactosidase activity relative to DMSO)
# respond with the number and nothing more

> print(dat)
                                   compound  experimental.value
1  CC1(C)Cc2c(cnn2-c2cccc(F)c2)C(NC(=O)CCc2cnccn2)C1 (centres unmarked) [MLS001125260-01]              0.9131
2  C/C(=N\NC(=O)c1cc(C)oc1C)c1ccc2ccccc2c1 [MLS000912258-01]              1.0171
3  Cc1ccc(N2C(=O)C3NN=C(C(=O)OCc4ccccc4)C3C2=O)cc1 (centres unmarked) [MLS000588210-01]              0.9316
4  COc1ccc(OC)c(NC(=O)CN2CCC(NC(=O)c3ccccc3C)CC2)c1 [MLS001212882-01]              1.0086

# evaluate next
Item Cc1cc([N+](=O)[O-])ccc1NC(=O)C(C)N1CCN(c2ccccn2)CC1 (centres unmarked) [MLS000764729-01] : provide CMV-LACZ in Myoblasts (β-galactosidase activity relative to DMSO)
0.8880

====

- System: β-galactosidase in CMV-LacZ C2C12 myoblasts
- assay-explanation: CMV-LacZ secondary screen in C2C12 myoblasts (β-Gal stabilizing assay)
- Assay type: cell-based, mouse
- reported-conditions: 5 uM; CMV-LacZ C2C12 myoblasts
assay-readout: CMV-LACZ in Myoblasts (β-galactosidase activity relative to DMSO)

> print(dat)
                                   molecule  experimental.value
1  CCCn1c(-c2cc(OC)c(OC)c(OC)c2)nc2c1c(=O)[nH]c(=O)n2Cc1ccccc1 [MLS001174740-01]              1.0046
2  CCOC(=O)c1sc(=N)n(-c2ccc(OC)cc2)c1C [MLS000090135-01]              0.9731
3  COc1ccccc1CC(=O)Nc1cc(S(=O)(=O)N2CCOCC2)ccc1N1CCOCC1 [MLS002170630-01]              0.9890
4  CCN(CC)C(=O)c1sc2nc(-c3ccc(OC)cc3)cn2c1C [MLS000089464-01]              0.9372
5  NS(=O)(=O)c1ccc(NC(=O)CN2CCc3ccccc32)cc1 [MLS000850522-01]              0.8809

For the molecule N#Cc1ccc(Sc2nc3ccccc3[nH]2)cc1C#N [MLS000110418-01] , give its measured CMV-LACZ in Myoblasts (β-galactosidase activity relative to DMSO) value.
1.0913

Indicate the recorded CMV-LACZ in Myoblasts (β-galactosidase activity relative to DMSO) value for this molecule: N#CC1=C2SCN(c3ccccc3)CN2C(=O)CC1c1cccs1 (stereo not shown) [MLS000080654-01]
1.0703

====

Reported CMV-LACZ in Myotubes, value relative to DMSO values follow for various molecules
- Test system: β-galactosidase in CMV-LacZ C2C12 myotubes
- assay-explanation: CMV-LacZ secondary screen in C2C12 myotubes (β-Gal stabilizing assay)
- Assay type: cell-based, mouse
- reported-conditions: 0.5 uM; SU9516 analogs, C2C12 CMV-LacZ, N=2
// return a plain number; no unit text

> print(dat)
                                   molecule                                    target  experimental.value
1  Cc1ccc2c(c1)/C(=C/c1ccc(F)cc1)C(=O)N2 [MLS001202366-01]  β-galactosidase in CMV-LacZ C2C12 myotubes              0.9844

Annotate the molecule O=C1Nc2ccccc2/C1=C/c1cnc(-c2ccccc2)[nH]1 [MLS000834756-01] with its measured CMV-LACZ in Myotubes, value relative to DMSO.
0.9859

Assign CMV-LACZ in Myotubes, value relative to DMSO to the following record: NC(=O)COc1ccc(C(=O)/C=C2/C(=O)Nc3ccccc32)cc1 [MLS001214300-01]
0.9819
